- Test System: T1, cynomolgus monkey CXCR4 (cynomolgus monkey, UniProt Q28474 1-352)
- T1 construct: whole, on cells; On transiently transfected HEK293T cells or endogenous on the cynomolgus T-cell line HSC-F; also called Cynomolgus CXCR4
- T1 sequence (Q28474 whole entry): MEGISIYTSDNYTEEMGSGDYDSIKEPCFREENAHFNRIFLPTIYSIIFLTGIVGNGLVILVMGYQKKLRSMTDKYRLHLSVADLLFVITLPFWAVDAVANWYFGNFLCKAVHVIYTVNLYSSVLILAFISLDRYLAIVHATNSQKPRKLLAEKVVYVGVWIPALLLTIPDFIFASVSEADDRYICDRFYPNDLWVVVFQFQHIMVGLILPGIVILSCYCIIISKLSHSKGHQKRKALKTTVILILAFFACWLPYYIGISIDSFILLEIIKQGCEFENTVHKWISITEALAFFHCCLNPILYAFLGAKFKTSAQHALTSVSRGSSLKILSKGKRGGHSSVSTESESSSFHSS
- Run Description: FMAT, hybridoma supernatant on HEK293T cells transiently overexpressing full-length cynomolgus CXCR4
Assignment: determine reported Count for the given binders.
One number for each entry.

Binder: 5C9 (antibody, V domains shown, Fully human monoclonal antibody from XenoMouse hybridoma (lambda light chain)) VH: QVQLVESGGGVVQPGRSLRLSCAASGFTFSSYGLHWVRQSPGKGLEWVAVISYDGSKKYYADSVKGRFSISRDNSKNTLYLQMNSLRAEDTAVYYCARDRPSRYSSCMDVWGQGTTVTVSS VL: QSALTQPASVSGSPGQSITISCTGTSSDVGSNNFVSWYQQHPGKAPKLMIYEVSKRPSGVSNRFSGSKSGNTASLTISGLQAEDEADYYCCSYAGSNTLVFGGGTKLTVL
Result Value: 106
//
Binder: 2A4 (antibody, V domains shown, Fully human monoclonal antibody from XenoMouse hybridoma; also called mAb 2A4; Mab2A4) VH: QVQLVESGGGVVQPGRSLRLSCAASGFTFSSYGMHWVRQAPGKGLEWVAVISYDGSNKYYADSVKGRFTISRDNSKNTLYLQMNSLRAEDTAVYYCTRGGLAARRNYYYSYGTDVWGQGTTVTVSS VL: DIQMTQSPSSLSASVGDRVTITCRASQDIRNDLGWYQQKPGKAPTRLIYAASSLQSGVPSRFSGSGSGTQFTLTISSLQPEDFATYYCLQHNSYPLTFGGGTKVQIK
Result Value: 89
//
Binder: 6C7 (antibody, V domains shown, Fully human monoclonal antibody from XenoMouse hybridoma; also called antibody 6C7; mAb 6C7) VH: QVQLVESGGGVVQPGRSLRLSCAASGFTFSNYVMHWVRQAPGKGLEWVAVIWYDGSNKYYADSVKGRFTISRDNSKNTLSLQMNSLRAEDTAVYYCERGEGYYGSGSRYRGYYYGMDVWGQGTTVTVSS VL: DIQMTQSPSSLSASVGDRVTITCRASQGIRTDLGWYQQKPGKAPKRLIYAASSLQSGVPSRFSGSGSGTEFTLTISSLQPEDFATYYCLQHNSYPRTFGQGTKVEIK
Result Value: 125
//
Binder: 7C8 (antibody, V domains shown, Fully human monoclonal antibody from XenoMouse hybridoma) VH: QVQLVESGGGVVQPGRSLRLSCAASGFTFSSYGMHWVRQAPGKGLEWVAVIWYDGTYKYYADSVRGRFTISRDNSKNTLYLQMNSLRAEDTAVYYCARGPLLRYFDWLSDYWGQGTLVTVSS VL: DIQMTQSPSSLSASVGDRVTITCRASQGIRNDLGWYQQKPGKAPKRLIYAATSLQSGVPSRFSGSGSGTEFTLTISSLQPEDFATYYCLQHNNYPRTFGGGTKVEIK
Result Value: 137

# Count lookup, item 4C1 (antibody, V domains shown, Fully human monoclonal antibody from XenoMouse hybridoma (strains XMG2 IgG2 or XMG4 IgG4, kappa/lambda); Tested as hybridoma supernatant or purified antibody; also called mAb 4C1; Mab4C1) VH: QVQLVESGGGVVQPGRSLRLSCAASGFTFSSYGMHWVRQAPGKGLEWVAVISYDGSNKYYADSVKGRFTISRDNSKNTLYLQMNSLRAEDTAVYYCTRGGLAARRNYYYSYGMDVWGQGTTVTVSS VL: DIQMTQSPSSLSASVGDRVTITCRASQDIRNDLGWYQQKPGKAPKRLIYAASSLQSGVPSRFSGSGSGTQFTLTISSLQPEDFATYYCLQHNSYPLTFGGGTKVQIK
46

Where these numbers come from: patent US20140314784A1
